This collection of values is drawn from patent EP4592317A1.

Each entry below lists one item and its recorded absorbance at 450 nm value.
- Study system: T1, Monkey 4-1BB extracellular region recombinant protein (his-tag) (monkey)
- T1 construct: extracellular domain; also called Monkey4-1BB, his-tag
- Measurement description: ELISA, coated monkey 4-1BB-his 200 ng/well; antibody 0 µg/ml (background well)
The answer should be a number; do not append a unit.

Field: example entries. Status: answers known.
{"columns": ["Binder", "absorbance at 450 nm"],
 "data": [
  ["137-12 VHH-hFc recombinant antibody (Fc fusion, VHH fragment inserted into vector pFclG with human IgG1 Fc tag, expressed in HEK293F; not shown: human IgG1 Fc tag of the eukaryotic expression vector pFclG) QVQLVESGGGLVHPGGSLRLSCAASGFTLDDSAIGWFRQAPGKEREGVSCRSRSGYMTKYADSVKGRFTISRYNANNTMYLQMNSLKPEDTAVYYCATTRRGYCSGYETKGVDYWGQGIQVTVSS", 0.058],
  ["137-18 VHH-hFc recombinant antibody (Fc fusion, VHH fragment inserted into vector pFclG with human IgG1 Fc tag, expressed in HEK293F; also called CD137-18; not shown: human IgG1 Fc tag of the eukaryotic expression vector pFclG) QVQLVESGGGLVHPGGSLRLSCAASGFIFSLYTMSWVRQAPGKGLEWVSDINSGGDSTDYADSVKGRFTISRDNAKSTLYLQMNSLKPEDTAVYYCAKDYPLGQREDYWGQGTQVTVSS", 0.051],
  ["137-16 VHH-hFc recombinant antibody (Fc fusion, VHH fragment inserted into vector pFclG with human IgG1 Fc tag, expressed in HEK293F; Preparation had non-specific bands, purity >70%; also called CD137-16; not shown: human IgG1 Fc tag of the eukaryotic expression vector pFclG) EVQLVESGGGLVQAGASLTLSCVISGRTFSSYAMGWYRQAPGKERAFVGTITWNNDIIYSDSVKGRFTISTDDGKNTMYLQMNNLKPEDTAVYYCAAYSVPYGDFCTLNYDLMDYWGKGTLVTVSS", 0.043],
  ["137-36 VHH-hFc recombinant antibody (Fc fusion, VHH fragment inserted into vector pFclG with human IgG1 Fc tag, expressed in HEK293F; not shown: human IgG1 Fc tag of the eukaryotic expression vector pFclG) QVQLVESGGGLVQTGGSLTLSCVASGRRFEAYTIGWLRQAPGDLREGVGCIFGGTTFTGYDDSVKGRFTISRDTAKNTVYLRMNNLTSEDTATYYCAAEGRPGQIKGQHGCLTPSWYNYKGQGTQVTVSS", 0.041],
  ["137-39 VHH-hFc recombinant antibody (Fc fusion, VHH fragment inserted into vector pFclG with human IgG1 Fc tag, expressed in HEK293F; Preparation had non-specific bands, purity about 30%; not shown: human IgG1 Fc tag of the eukaryotic expression vector pFclG) QVQLVESGGGLVHVGESLTLSCVISGGSSNLYGIGWYRQAPGQERKLVAVLHNEHTTKYLDSVKGRFFVSGDNAKNTLYLHMNNVKVEDTAVYYCNSASGTLAGTGYFASVGPWGQGTLVTVSS", 0.041],
  ["137-7 VHH-hFc recombinant antibody (Fc fusion, VHH fragment inserted into vector pFclG with human IgG1 Fc tag, expressed in HEK293F; also called CD137-7; not shown: human IgG1 Fc tag of the eukaryotic expression vector pFclG) QVQLVESGGGLVQPGGSLRLSCAASGFTLDSYAIAWFRQAPGKEREGVSCITSSGGSTNYADSVKGRFTISRDGAKNTVYLQLNSLKPEDTAIYYCAAFHRATCVILGEYDYWGQGTQVTVSS", 0.055]
]}

Okay, now this binder:
Query: Find the recorded absorbance at 450 nm belonging to 137-1 VHH-hFc recombinant antibody (Fc fusion, also called CD137-1; not shown: human IgG1 Fc tag of the eukaryotic expression vector pFclG) QVQLVESGGGLVQPGGSLRLSCVASGFVFSTVTMGWGRQVPGKEFEWVSGVSSEGITDYADSVKGRFTISRDNAKNTVYLEMNSLKSEDTAEYYCLIGGRWSFGTWGQGTQVTVSS and report it.
Response: 0.077
